Origin of the recorded values: the supplement of paper PMC9170038

Test system: MS2 coat protein
Assay: apparent KD of MS2 coat protein; designed switch direction (-1 OFF switch, 1 ON switch): -1; higher = weaker reporter binding
Conditions: input ligand: FMN 200 uM
Each entry below carries its reported apparent KD of MS2 coat protein.
Report as a plain number; the unit nM is understood.

| Primary sequence | apparent KD of MS2 coat protein / nM |
| --- | --- |
| GCUUUUUGUGUAGGAUAUCGCGCGCGGCGUGUGUGAGAAGGACAUGAGGAUCACCCAUGUAGCAACGGCGGCGCUGGUGUUGUC [-27, -24 kcal and 18% A] (Eterna round: R96, puzzle: Exclusion NG 1) | 16.7 |

# input For GCUUGUGUUGAGGAUAUGCGCCGGCUCGCUGGCGCAGAAGGCGGCACAUGAGGAUCACCCAUGUCAGUUCGCGU [salish99_ex6_r004_010] (Eterna round: R97, puzzle: Exclusion 6) , what is its reported apparent KD of MS2 coat protein?
# output 428

# input Endpoint output: apparent KD of MS2 coat protein of ACCAGCAUACGGAGAUCCAACAUGAGGAUCACCCAUGUCUGGAAAGCUUUUUGCUUGUCUUAUCCUCCUCUGUGUGU [Design #5] (Eterna round: R97, puzzle: Sensor, turn-off variant 1) . Value?
# output 30.2

----------
Test system: MS2 coat protein
Assay: apparent KD of MS2 coat protein; designed switch direction (-1 OFF switch, 1 ON switch): 1; higher = weaker reporter binding
Conditions: input ligand: none
Record Fulfilled whenever apparent KD of MS2 coat protein is at 0.05 µM or higher; record Not fulfilled when lower.

The examples below pair each entry with its known result.
| Primary sequence | Discrete label |
| --- | --- |
| ACAUGAGACCGAGGAUAUUUUGUACCUACAUGUGACAUGAGGAUCACCCAUGUGGUAAGUAUGAGAAAGAAGGCGGAGAUAUGU [Equivalence 20 - Jieux - Same State NG 2] (Eterna round: R96, puzzle: Same State NG 2) | Not fulfilled |
| UUACUCAUGUAAGGAUAUGCAGCCGAAACGGCUGCAGAAGGUACUAUAAUACAUGAGGAUCACCCAUGUCAAAAUAAUUUUUAC [Mat - Same State NG 1 - JL mod - D71] (Eterna round: R96, puzzle: Same State NG 1) | Not fulfilled |
| CCAAUGUACAAUUUAGAUCUACAUGAGGAUCACCCAUGUACAGAGGAUAUCAGCUCGAAUAGAGCUGAGAAGGCUGAAUUAAUU [SSNG3/3-A1] (Eterna round: R96, puzzle: Same State NG 3) | Fulfilled |
| GCUCGAAUCAAAACCAACAUGAGGAUCACCCAUGUAUGUUGGUAGGAUAUCGUUUGCUUUGCAAACGAGAAGGGCCAAACGAGC [SameState NG3 #3] (Eterna round: R96, puzzle: Same State NG 3) | Fulfilled |
| ACAUGAAAUUGAGGAUAUUUUGUACCUACAUGUGACAUGAGGAUCACCCAUGUGGUAAGUAUAAGAGAGAAGGCAAAGAUAUGU [Equivalence 6 - Jieux - Same State NG 2] (Eterna round: R96, puzzle: Same State NG 2) | Not fulfilled |
| GGUGCCAAUAAAGCCUACAUGAGGAUCACCCAUGUAUGUAGGUAGGAUAUCGUUUGCUUUGCAAACGAGAAGGGCCUAGGCACC [JL SSNG3 1.20] (Eterna round: R96, puzzle: Same State NG 3) | Not fulfilled |
| GCAGGACGAUAAUAUAUCUUCACAUGAGGAUCACCCAUGUCUCAGGAUAUGGAUCCUAAUUGGAUCCAGAAGGGAGCGUCCUGC [Fiskers NG3ss - 33] (Eterna round: R96, puzzle: Same State NG 3) | Fulfilled |
| UGUACCUUCACAGGAUAUCAUGCGAAAAUUGCGUGAGAAGGGUGAAUACUGUCUUUCUAAGAGUACAUGAGGAUCACCCAUGUA [SameState NG1 #60] (Eterna round: R96, puzzle: Same State NG 1) | Fulfilled |

Proceed to the following item.
# input Answer whether apparent KD of MS2 coat protein of AGCUAUUAAUCAGGAUAUGGUCACAUGAGGAUCACCCAUGUGUAGAUGAUAAAAUGUGGUCAAGACUAGAAGGGAUUGCUAACA [SameState NG2 #62] (Eterna round: R96, puzzle: Same State NG 2) is greater than or equal to 0.05 µM.
# output Fulfilled

----------
Test system: K4 kissing-loop RNA reporter;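 note: bound reporter read as fluorescence of individual clusters on recovered sequencing chips by microscopy, with normalized cluster intensities fitted with a binding model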
Assay: apparent KD of K4 kissing-loop reporter; higher = weaker reporter binding
Conditions: Eterna round: R107; input ligand: tryptophan 2.4 mM
Kindly return Fulfilled if reported apparent KD of K4 kissing-loop reporter is no lower than 200 nM; return Not fulfilled if it is lower.

For orientation, consider the following solved cases.
| Primary sequence | Discrete label |
| --- | --- |
| AACGGCCAGUCGGCCGCCACUCGAUGCAGUGAUGUUGCUAACUUUCUAAAAGAGUGAUGUUCAUGGAGGACCGGGACUAGUGUAA [#30 K4 Tryptophan B Exclusion] | Fulfilled |
| AACGGCCAGUCGGCCGCCACUCAAAGCAGUGAUGUUGCUAACUUUCUAAAAGAGUGAUGUUCUUAGAGGACCGGGACUAAUGUAA [Exclusion Tryptophan B GF 2] | Not fulfilled |
| GGAUAGGAUAGAGGAUAUGGAAAACACAGAAGUGACUUGUUGUGUUUAUCCAUAGGGAGUGAUGUUCCAGAAGGCUGUCCUAUCG [MatMod 22 - Jieux - Exclusion - FMN B] | Not fulfilled |
| CGUACGGUUUCUUUCUUUCCGUACGAGUGCCGAGGACCGGUACGGCCGCCACUCGCUACAGCCUAGUGAUGUUAGGAACGUGUUA | Not fulfilled |

# input Check the entry AAAUUUUAAAGUGAUACCAGACAUCUCUAUUACAUUAAUAUAGCUAAGUGAUGUUUAGCAGUCCCUUGGCAGCACAAUUUAAUUA [JR_SSTheophyB_Sub012] : does apparent KD of K4 kissing-loop reporter equal or exceed 200 nM?
# output Fulfilled

----------
System: MS2 coat protein
Experiment: apparent KD of MS2 coat protein; designed switch direction (-1 OFF switch, 1 ON switch): 1; higher = weaker reporter binding
Details: Eterna round: R95; input ligand: microRNA oligo, concentration not stated
Classification by apparent KD of MS2 coat protein follows these ranges: bottom end (below 20 nM), midrange (20 nM to below 60 nM), top end (60 nM or more)

| Primary sequence | Discrete label |
| --- | --- |
| ACCCAAAGUAUAUGGGAGCAAGCUUUUUAACAUGAGGAUCACCCAUGUACUCGUCUUAUAAGCAGUCGAAAGACUGC [Sensor 100 - 4] (puzzle: Sensor for hsa-mir-208a) | bottom end |
| GCCCAUAGUAUAUGGGUACAAGCUUUUUGACAUGAGGAUCACCCAUGUACUCGUCUUAUGUGCAGUCCGUAGACUGC [JL-shm-2.18 Brourd mod] (puzzle: Sensor for hsa-mir-208a) | bottom end |
| ACGCAGCUGGGUGAGGAUAUCGGUGGUAAAACAUGAGGAUCACCCAUGUCCGAAGCUCGGACUUCCGAGAAGGCGCCCAACUGCA [Ercelama] (puzzle: Same State 2) | midrange |

# input Kindly state the category for this sequence: GAUUAACAUGAGGAUCACCCAUGUCGUUAAAUGGGAGGAUAUACGUGGACCGUAGUCCGCGUAGAAGGCCUAAUUG [Mat - Same State 1 - Mod of JL - D22] (puzzle: Same State 1)
# output top end

----------
The sequences listed here are annotated with their apparent KD of MS2 coat protein.
Test system: MS2 coat protein
Experiment: apparent KD of MS2 coat protein; higher = weaker reporter binding
Settings: Eterna round: R107; input ligand: theophylline 2 mM
Use nM as the unit, but write only the number.

Recorded results for 2 sequences are shown here.
| Primary sequence | Unit abbreviation | apparent KD of MS2 coat protein |
| --- | --- | --- |
| AAACAUGAGGAUCACCCAUGUGGAACCGAAGGAGCGGCGCACAUGCCAGGUAGGUCGCGGGACAUGAGGACAUGAGGAUCACCCA [Same State Arginine A 3] | nM | 184 |
| GACGCAUGAGUUGUAACAGCUCAUGGGUCGCGAGGACCGGUACGGCCGCCACUCGGCUGUACAUGAGGAUCACCCAUGUCAGGGU [#1 Same State - Tryptophan A Attempt #29 (HarryS)] | nM | 1310 |

# input Quick one: apparent KD of MS2 coat protein of GCAUCCUAGUCGGCCGCCACUGCAACAUGAGGAUCACCCAUGUCAGGCCUCAUGUGUCCUGGUAGCAGGACCGGGACUAGGAUGC [(T1)-(M1)-(M2)-(T)''-(M)'-(T)'-(T2)_Design4_2/18/17] ?
# output 52

----------
A collection of sequences and their measured apparent KD of MS2 coat protein
Tested on: MS2 coat protein
Test: apparent KD of MS2 coat protein; higher = weaker reporter binding
Conditions: Eterna round: R107; input ligand: none
// note: answer is a bare numeric in nM

Use the examples below as a reference point.
| Primary sequence | apparent KD of MS2 coat protein (nM) |
| --- | --- |
| GCUACAUGAGGAUCACCCAUGUGUACUGAAGGAGCGGCGAAAACGCCAGGUAGGUCGCAGUAUGUGGCUCUGGGCACGAGAUGGC [#02 Same State - Arginine A] | 37.3 |
| GACCGGUUAUAGUGCGAUUGUCUUGUGGAAGGAGCGCAGAGGACUGCAGGUAGGUCGCCACAUGAGGAUCACCCAUGUCAGGAUA [Tirevete] | 23.7 |
| AAAAUCCUCCAUGAGGAUCACCCAUGGGAAGGAGCGCCCGAAAGGGCAGGUAGGUCGCCCAUGAGGAUCACCCAUGGAACCUAAA [ArgAX 26 #DoubleMS2 #OpenEnded #AlternativeMS2] | 56.5 |
| GUCCUCAGCCGAAGGAGCGCUAGAAGGUGACAUGAGGAUCACCCAUGUGUGUGAUGUGGCUAGCAGGUAGGUCGCGGAGAGGAUU [Exclusion - Arginine B (Freestyle 17)] | 98.6 |
| UACAUGAGGAUCACCCAUGUGUAACCAGAAGGAGCGUGCGAAAGCACAGGUAGGUCGCUGGUGGGUUUAGGUUUAAUAGGUGUAU [SSAA NP+V+V2 #4 +-Same Structure] | 32.3 |

# input Item ACUAGGCUCGGAAACGAGCCUAGGACAGAAGGAGCGUGGAUUAACACAGGUAGGUCGCUGACAUGAGGAUCACCCAUGUAUUUAU [SSAA #5] has what recorded apparent KD of MS2 coat protein?
# output 27.3

# input Which apparent KD of MS2 coat protein value belongs to UCGUCAGGCGCGGCCGCCACUGCGGUGAUGUGACAUGAGGAUCACCCAUGUUGUCAUGUGGCACAUAGGACCGGGUGCCUGGCGA [Exclusion - Tryptophan B Attempt #5 (HarryS)] ?
# output 56

# input Requested field: apparent KD of MS2 coat protein. Item: GGGUGUGAUCCGGAUACCAGCGAACAUGAGGAUCACCCAUGUGACCUGAGAUCGGCUCUACGCCCUUGGCAGCCGCGAUCGCAGG [Same State Theophylline B GF12]
# output 18.8

# input So what's the measured apparent KD of MS2 coat protein for this one? CACAUGAGGAUCACCCAUGUCUGAACUGAAGGAGCGCUAAAUAAGGCAGGUAGGUCGCGGAAUCCCGGGUGCAUAUGCACCCGGG [9.aB]
# output 32
